Form field: binding signal (one value per entry).
Study target: GST-Nv-NF-kB (Ser allele) (Nematostella vectensis, UniProt A7UNT2 2-411)
Sequence: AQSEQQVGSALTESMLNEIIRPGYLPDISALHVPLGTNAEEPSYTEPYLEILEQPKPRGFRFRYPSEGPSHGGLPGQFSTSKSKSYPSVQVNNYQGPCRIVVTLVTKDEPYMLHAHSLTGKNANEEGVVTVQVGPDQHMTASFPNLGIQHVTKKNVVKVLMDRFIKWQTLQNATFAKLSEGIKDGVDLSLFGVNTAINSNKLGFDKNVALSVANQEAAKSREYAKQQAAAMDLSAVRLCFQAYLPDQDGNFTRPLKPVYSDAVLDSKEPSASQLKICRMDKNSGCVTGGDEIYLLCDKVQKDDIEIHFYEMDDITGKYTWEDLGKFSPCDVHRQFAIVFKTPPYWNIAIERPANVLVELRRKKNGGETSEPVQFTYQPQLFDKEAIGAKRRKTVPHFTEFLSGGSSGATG
Method description: protein-binding microarray (PBM); PBM: ~300 nM protein, 6 mM HEPES pH 7.8, 80 mM KCl, 0.5 mM EDTA, 0.5 mM EGTA, 6% glycerol, 35 ng/ul poly-dIdC, 1% milk, 1 h, room temperature; high values mean tight binding
Reported conditions: dsDNA, one strand shown
Measure: binding signal (z-score)

- CCGATTAACATCAGGGGGTTGACTGATGTTAATCGGGTCTTGATTCGCTTGACGCTGCTG: 3.62
- CCGATTAACATCAAAATTTACCATGATGTTAATCGGGTCTTGATTCGCTTGACGCTGCTG: 2.56
- CCGATTAACATCAGGGGGGATAATGATGTTAATCGGGTCTTGATTCGCTTGACGCTGCTG: 5.26
- CCGATTAACATCAGGGGCTTTTATGATGTTAATCGGGTCTTGATTCGCTTGACGCTGCTG: 7.11
- CCGATTAACATCAAGGGGGTTCCTGATGTTAATCGGGTCTTGATTCGCTTGACGCTGCTG: 6.26
- CCGATTAACATCAAAAATACCCCTGATGTTAATCGGGTCTTGATTCGCTTGACGCTGCTG: 7.96
- CCGATTAACATCAGGATTTCCCATGATGTTAATCGGGTCTTGATTCGCTTGACGCTGCTG: 4.48
- CCGATTAACATCAGGAGCCCCCCTGATGTTAATCGGGTCTTGATTCGCTTGACGCTGCTG: 2.66
- CCGATTAACATCAGGGGATGAACTGATGTTAATCGGGTCTTGATTCGCTTGACGCTGCTG: 4.24
- CCGATTAACATCAGGACAGCCCCTGATGTTAATCGGGTCTTGATTCGCTTGACGCTGCTG: 2.05
- CCGATTAACATCAAAGAATCCCCTGATGTTAATCGGGTCTTGATTCGCTTGACGCTGCTG: 11.8
- CCGATTAACATCAGGGGAAACTATGATGTTAATCGGGTCTTGATTCGCTTGACGCTGCTG: 10.9
- CCGATTAACATCAGGGGGAATAATGATGTTAATCGGGTCTTGATTCGCTTGACGCTGCTG: 8.87
- CCGATTAACATCAGGGAAAGACCTGATGTTAATCGGGTCTTGATTCGCTTGACGCTGCTG: 4.32
- CCGATTAACATCAAGCACCCCCCTGATGTTAATCGGGTCTTGATTCGCTTGACGCTGCTG: 3.81
- CCGATTAACATCACGGAAATCCCTGATGTTAATCGGGTCTTGATTCGCTTGACGCTGCTG: 2.78
- CCGATTAACATCAATTTTCCCCCTGATGTTAATCGGGTCTTGATTCGCTTGACGCTGCTG: 11.2
- CCGATTAACATCAGGCATTCCCCTGATGTTAATCGGGTCTTGATTCGCTTGACGCTGCTG: 7.12

---

Study target: GST-Aq-NF-kB (Amphimedon queenslandica, UniProt A9Y5G7 2-389)
Sequence: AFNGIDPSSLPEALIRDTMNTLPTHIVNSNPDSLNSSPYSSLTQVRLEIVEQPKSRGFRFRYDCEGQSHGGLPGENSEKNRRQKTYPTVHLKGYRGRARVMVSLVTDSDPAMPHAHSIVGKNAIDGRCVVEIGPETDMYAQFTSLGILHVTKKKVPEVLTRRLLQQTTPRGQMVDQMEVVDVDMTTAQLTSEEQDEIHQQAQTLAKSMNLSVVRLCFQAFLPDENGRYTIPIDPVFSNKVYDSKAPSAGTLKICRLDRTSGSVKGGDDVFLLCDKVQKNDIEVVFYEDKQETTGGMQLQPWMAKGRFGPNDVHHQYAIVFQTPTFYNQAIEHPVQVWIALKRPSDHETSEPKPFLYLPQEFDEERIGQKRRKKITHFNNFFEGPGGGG
Method description: protein-binding microarray (PBM); PBM: ~300 nM protein, 6 mM HEPES pH 7.8, 80 mM KCl, 0.5 mM EDTA, 0.5 mM EGTA, 6% glycerol, 35 ng/ul poly-dIdC, 1% milk, 1 h, room temperature; Ap Aiptasia and Nv Nematostella (sea anemones) / Co Capsaspora / Aq Amphimedon (sponge) / Dm Drosophila / Hu human; RHD is the Rel homology domain; high values mean tight binding
Reported conditions: dsDNA, one strand shown
Measure: binding signal (z-score)

• CCGATTAACATCAATTCCCGTACTGATGTTAATCGGGTCTTGATTCGCTTGACGCTGCTG = 2.81
• CCGATTAACATCAAACTCTCCCCTGATGTTAATCGGGTCTTGATTCGCTTGACGCTGCTG = 4.74
• CCGATTAACATCAAAATAGTCCCTGATGTTAATCGGGTCTTGATTCGCTTGACGCTGCTG = 6.34
• CCGATTAACATCAGGGGACACCCTGATGTTAATCGGGTCTTGATTCGCTTGACGCTGCTG = 6.52
• CCGATTAACATCACATTGGGAAATGATGTTAATCGGGTCTTGATTCGCTTGACGCTGCTG = 1.18
• CCGATTAACATCAGGGGGGTGGATGATGTTAATCGGGTCTTGATTCGCTTGACGCTGCTG = 4.03
• CCGATTAACATCAAATTTCCGGGTGATGTTAATCGGGTCTTGATTCGCTTGACGCTGCTG = 1.44
• CCGATTAACATCAGGACCTCCCCTGATGTTAATCGGGTCTTGATTCGCTTGACGCTGCTG = 6.93
• CCGATTAACATCAAGGGGGAAAATGATGTTAATCGGGTCTTGATTCGCTTGACGCTGCTG = 6.14
• CCGATTAACATCACAACTTCCCCTGATGTTAATCGGGTCTTGATTCGCTTGACGCTGCTG = 6.51
• CCGATTAACATCAGGAAACACCCTGATGTTAATCGGGTCTTGATTCGCTTGACGCTGCTG = 6.01
• CCGATTAACATCACAAAAATCCCTGATGTTAATCGGGTCTTGATTCGCTTGACGCTGCTG = 6.23
• CCGATTAACATCACGTGGTTTCCTGATGTTAATCGGGTCTTGATTCGCTTGACGCTGCTG = 1.63
• CCGATTAACATCAAATAATTCCCTGATGTTAATCGGGTCTTGATTCGCTTGACGCTGCTG = 6.69
• CCGATTAACATCAGGAAACCACCTGATGTTAATCGGGTCTTGATTCGCTTGACGCTGCTG = 6.62
• CCGATTAACATCAGGGGGAAAGATGATGTTAATCGGGTCTTGATTCGCTTGACGCTGCTG = 5.04
• CCGATTAACATCAGGGGAAGACCTGATGTTAATCGGGTCTTGATTCGCTTGACGCTGCTG = 7.72
• CCGATTAACATCACGGGACATACTGATGTTAATCGGGTCTTGATTCGCTTGACGCTGCTG = 2.17
• CCGATTAACATCAGGGACAGCCCTGATGTTAATCGGGTCTTGATTCGCTTGACGCTGCTG = 6.35
• CCGATTAACATCAAACCACCCCCTGATGTTAATCGGGTCTTGATTCGCTTGACGCTGCTG = 3.77
• CCGATTAACATCACGGTAATTCCTGATGTTAATCGGGTCTTGATTCGCTTGACGCTGCTG = 4.04
• CCGATTAACATCAAGGGGGGAGGTGATGTTAATCGGGTCTTGATTCGCTTGACGCTGCTG = 4.07
• CCGATTAACATCAAGTTTTCCCCTGATGTTAATCGGGTCTTGATTCGCTTGACGCTGCTG = 6.59
• CCGATTAACATCAAAATTTCCAGTGATGTTAATCGGGTCTTGATTCGCTTGACGCTGCTG = 1.04
• CCGATTAACATCAGGGGAAAAACTGATGTTAATCGGGTCTTGATTCGCTTGACGCTGCTG = 6.72
• CCGATTAACATCACACTCCCCCCTGATGTTAATCGGGTCTTGATTCGCTTGACGCTGCTG = 3.93
• CCGATTAACATCACGGAAAACCCTGATGTTAATCGGGTCTTGATTCGCTTGACGCTGCTG = 4.81
• CCGATTAACATCAAAATATCCCCTGATGTTAATCGGGTCTTGATTCGCTTGACGCTGCTG = 7.25
• CCGATTAACATCAGGCACTCCCCTGATGTTAATCGGGTCTTGATTCGCTTGACGCTGCTG = 4.71
• CCGATTAACATCATAGTGAGGGGTGATGTTAATCGGGTCTTGATTCGCTTGACGCTGCTG = 1.09
• CCGATTAACATCAAAACACCCCTTGATGTTAATCGGGTCTTGATTCGCTTGACGCTGCTG = 4.03
• CCGATTAACATCAGGGAGTTACCTGATGTTAATCGGGTCTTGATTCGCTTGACGCTGCTG = 7.22
• CCGATTAACATCAGGGGGATAACTGATGTTAATCGGGTCTTGATTCGCTTGACGCTGCTG = 5.34
• CCGATTAACATCATCAGGGAAAATGATGTTAATCGGGTCTTGATTCGCTTGACGCTGCTG = 2.95
• CCGATTAACATCACGGCATTCCCTGATGTTAATCGGGTCTTGATTCGCTTGACGCTGCTG = 3.81
• CCGATTAACATCAGGGAATCCCATGATGTTAATCGGGTCTTGATTCGCTTGACGCTGCTG = 6.45
